The values you see were collected from patent US11420970B1.

IC50: recorded values
biological target: NSD2 [1-1365] (Homo sapiens (Human)); experiment: LC-MS/MS-based NSD2 enzymatic assay (SAH production); type: biochemical; conditions: NSD2 biochemical activity, class symbols; read-out: NSD2 IC50

COMPOUND	IC50
Nc1ncnc2c1ncn2Cc1cc(-c2ccc(F)c(Cl)c2)ncc1N1CCC[C@](N)([C@@H](O)C(F)F)C1	1 to 10 nM
Cn1ccc(C[C@@]2(N)CCCN(c3cnc(-c4ccc(F)cc4)cc3Cn3cnc4c(N)nccc43)C2)n1	1 to 10 nM
Nc1ncnc2c1ncn2Cc1cc(-c2ccc(F)c(F)c2)ncc1N1CCCC(N)(C(=O)N2CCCCC2)C1 (stereo not shown)	10 to 1000 nM
Nc1ncnc2c1ncn2Cc1cc(-c2ccc(F)c(F)c2)ncc1N1CCCC(N)(C(=O)NC2CCOC2)C1 (stereo not shown)	10 to 1000 nM
Nc1ncnc2c1ncn2Cc1cc(C2CCCCC2)ncc1N1CCC[C@](N)([C@@H](O)C(F)F)C1	1 to 10 nM
CC(C(=O)C1(N)CCCN(c2cnc(-c3ccc(F)c(F)c3)cc2Cn2cnc3c(N)ncnc32)C1)C1CC1 (stereo not shown)	10 to 1000 nM
COc1cc(F)c(-c2ncc(N3CCC[C@](N)([C@H](O)C(F)F)C3)c(Cn3cnc4c(N)ncnc43)c2F)cc1F	10 to 1000 nM

---

Form field: pIC50 (one value per entry).
target: NSD2 [1-1365] (Homo sapiens (Human)); test: LC-MS/MS-based NSD2 enzymatic assay (SAH production); format: biochemical; details: NSD2 biochemical activity, class symbols; read-out: NSD2 IC50
pIC50: −log10 of the molar value.

COMPOUND	pIC50
Cn1ncc2cc(-c3cc(Cn4cnc5c(N)ncnc54)c(N4CCC[C@](N)([C@@H](O)C(F)F)C4)cn3)c(F)cc21	8.00 to 9.00
Nc1ncnc2c1ncn2Cc1cc(-c2ccc(F)c(F)c2)ncc1N1CC[C@@H](O)[C@@H](N)C1	6.00 to 8.00
Nc1ncnc2c1ncn2Cc1cc(-c2ccc(F)cc2)ncc1N1CCC[C@](N)(COCC(F)(F)F)C1	6.00 to 8.00
CC(C)OC[C@@]1(N)CCCN(c2cnc(-c3ccc(F)c(F)c3)cc2Cn2cnc3c(N)ncnc32)C1	8.00 to 9.00
CC(C)(C)C(=O)[C@@]1(N)CCCN(c2cnc(-c3ccc(F)c(F)c3)cc2Cn2cnc3c(N)ncnc32)C1	6.00 to 8.00
Nc1ncnc2c1ncn2Cc1cc(-c2ccc(F)c(F)c2)ncc1N1CCC[C@](N)([C@H](F)c2ccccn2)C1	8.00 to 9.00
COc1ccc(-c2cc(Cn3cnc4c(N)ncnc43)c(N3CCC[C@](N)(COC4CC4)C3)cn2)cc1F	8.00 to 9.00
Cc1cc2c(cnn2C)cc1-c1cc(Cn2cnc3c(N)ncnc32)c(N2CCC[C@](N)([C@@H](O)C(F)F)C2)cn1	6.00 to 8.00
Nc1ncnc2c1ncn2Cc1cc(-c2ccc(C(F)F)cc2F)ncc1N1CCC[C@](N)([C@@H](O)C(F)F)C1	8.00 to 9.00
COC[C@@]1(N)CCCN(c2cnc(-c3ccc(F)c(Cl)c3)cc2Cn2cnc3c(N)ncnc32)C1	8.00 to 9.00
CC(C)C(=O)[C@@]1(N)CCCN(c2cnc(-c3ccc(F)c(F)c3)cc2Cn2cnc3c(N)ncnc32)C1	6.00 to 8.00
Nc1ncnc2c1ncn2Cc1cc(-c2ccc(F)cc2C(F)F)ncc1N1CCC[C@](N)([C@H](O)C(F)F)C1	8.00 to 9.00
CO[C@@H](C)[C@@]1(N)CCCN(c2cnc(-c3ccc(F)c(F)c3)cc2Cn2cnc3c(N)ncnc32)C1	6.00 to 8.00
COc1ccc(-c2cc(Cn3cnc4c(N)ncnc43)c(N3CCC(OC)C(N)C3)cn2)cc1F (centres unmarked)	6.00 to 8.00

---

tested on: cellular H3K36me2 level in multiple myeloma cell line KMS11 (t(4;14)+); assay: H3K36me2 cellular ELISA assay in KMS11-Par line; type: cell-based; conditions: Homo sapiens, KMS-11, 72 h, read-out: H3K36me2 ELISA in KMS11-Par
REPORTED METRIC: IC50

COMPOUND	RESULT
COc1ccc(-c2cc(Cn3cnc4c(N)ncnc43)c(N3CCC[C@@H](N)C3)cn2)cc1F [Example 1]	4.09 µM

---

biological target: NSD2 [1-1365] (Homo sapiens (Human), UniProt O96028); experiment: LC-MS/MS-based NSD2 enzymatic assay (SAH production); type: biochemical; settings: read-out: NSD2 IC50
Sequence (O96028 whole entry): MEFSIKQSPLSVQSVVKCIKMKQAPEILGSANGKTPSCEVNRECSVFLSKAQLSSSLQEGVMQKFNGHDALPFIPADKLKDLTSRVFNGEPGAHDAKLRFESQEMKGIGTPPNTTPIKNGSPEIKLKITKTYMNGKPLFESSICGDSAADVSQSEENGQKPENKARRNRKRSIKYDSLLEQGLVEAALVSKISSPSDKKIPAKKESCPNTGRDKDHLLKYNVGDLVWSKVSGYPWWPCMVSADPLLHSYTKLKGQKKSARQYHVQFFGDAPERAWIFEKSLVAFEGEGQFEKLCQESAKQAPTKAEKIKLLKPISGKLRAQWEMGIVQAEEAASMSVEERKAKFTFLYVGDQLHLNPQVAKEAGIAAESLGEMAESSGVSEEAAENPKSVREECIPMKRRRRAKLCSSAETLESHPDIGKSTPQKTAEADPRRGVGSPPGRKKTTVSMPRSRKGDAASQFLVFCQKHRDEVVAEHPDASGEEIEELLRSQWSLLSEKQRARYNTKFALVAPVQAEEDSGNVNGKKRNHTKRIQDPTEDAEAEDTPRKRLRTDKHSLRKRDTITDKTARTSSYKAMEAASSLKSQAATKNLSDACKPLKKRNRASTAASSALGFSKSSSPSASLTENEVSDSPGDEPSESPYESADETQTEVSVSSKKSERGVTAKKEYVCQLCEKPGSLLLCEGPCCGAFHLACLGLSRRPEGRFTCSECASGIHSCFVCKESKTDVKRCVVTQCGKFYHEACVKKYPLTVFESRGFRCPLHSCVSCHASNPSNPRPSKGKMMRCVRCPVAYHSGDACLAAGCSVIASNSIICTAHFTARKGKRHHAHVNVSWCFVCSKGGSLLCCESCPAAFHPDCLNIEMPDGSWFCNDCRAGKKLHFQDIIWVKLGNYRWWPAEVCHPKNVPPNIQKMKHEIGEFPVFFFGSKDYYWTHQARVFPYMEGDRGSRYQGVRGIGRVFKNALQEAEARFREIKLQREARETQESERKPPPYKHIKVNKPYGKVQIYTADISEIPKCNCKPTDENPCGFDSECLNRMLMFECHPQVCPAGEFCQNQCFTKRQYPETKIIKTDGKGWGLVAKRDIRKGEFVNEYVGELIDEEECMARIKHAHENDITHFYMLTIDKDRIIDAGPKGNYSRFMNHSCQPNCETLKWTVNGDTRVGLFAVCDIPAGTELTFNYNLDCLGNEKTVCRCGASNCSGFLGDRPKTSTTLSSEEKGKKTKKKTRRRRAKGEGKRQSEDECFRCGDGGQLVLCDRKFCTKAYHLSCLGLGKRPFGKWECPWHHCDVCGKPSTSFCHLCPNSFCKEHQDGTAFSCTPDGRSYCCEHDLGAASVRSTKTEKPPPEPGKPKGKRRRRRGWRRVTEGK

MOLECULE	IC50
Nc1ncnc2c1ncn2Cc1cc(-c2ccc(F)c(F)c2)ncc1N1CCC[C@](N)(c2ccc(OC(F)F)cn2)C1	0.001 to 0.01 µM
Nc1ncnc2c1ncn2Cc1cc(-c2ccc(F)c(F)c2)ncc1N1CCC[C@](N)(c2cccc(O)n2)C1	0.001 to 0.01 µM
COc1ccc(-c2cc(Cn3cnc4c(N)ncnc43)c(N3C[C@H](N)C[C@@H](CF)C3)cn2)cc1F	0.01 to 1 µM
Nc1ncnc2c1ncn2Cc1cc(-c2cc(F)c(F)cc2F)ncc1N1CCC[C@](N)(c2cccc(Cl)n2)C1	0.01 to 1 µM
Nc1ncnc2c1ncn2Cc1cc(-c2ccc3nccn3c2)ncc1N1CCCC(N)(c2cccc(Cl)n2)C1 (stereo not shown)	0.01 to 1 µM
Nc1ncnc2c1ncn2Cc1cc(-c2ccc(F)c(F)c2)ncc1N1CCC[C@](N)(c2nc(Cl)ccc2F)C1	0.01 to 1 µM
Nc1ncnc2c1ncn2Cc1cc(C2CC2)ncc1N1CCC[C@](N)(c2cccc(Cl)n2)C1	0.01 to 1 µM

---

Known pIC50 of a selection of compounds
Target: NSD2 [1-1365] (Homo sapiens (Human), UniProt O96028)
Assay: LC-MS/MS-based NSD2 enzymatic assay (SAH production)
Format: biochemical
Conditions: NSD2 biochemical activity, class symbols; read-out: NSD2 IC50
Protocol: LC-MS/MS-Based NSD2 Enzymatic Assay This assay employed LC-MS/MS technology to monitor the SAH production from the NSD2 enzymatic reaction. The enzymatic reaction was performed in white proxiplate plus 384-well microplate (Perkin Elmer). […] The SAH production from the enzymatic assays were monitored by LC-MS/MS on an API 4000 triple quadrupole mass spec with Turbolon Spray (Applied Biosystem) coupled with Prominenece UFLC(Shimazu). […] SAH and d4-SAH were simultaneously monitored. […]
pIC50: −log10 of the molar value.

COMPOUND	pIC50
Nc1ncnc2c1ncn2Cc1cc(-c2cc(F)c(C(F)F)cc2F)ncc1N1CCC[C@](N)([C@H](O)C(F)F)C1	8.00 to 9.00
Nc1ncnc2c1ncn2Cc1cc(-c2ccc(F)c(F)c2)ncc1N1CCC[C@](N)([C@@H](O)C(F)F)C1	6.00 to 8.00
COc1ccc(-c2cc(Cn3cnc4c(N)ncnc43)c(N3CCC[C@](N)([C@@H](C)O)C3)cn2)cc1F	8.00 to 9.00
COC[C@@]1(N)CCCN(c2cnc(-c3ccc(OC)cc3F)cc2Cn2cnc3c(N)ncnc32)C1	8.00 to 9.00
N#Cc1ccc(-c2cc(Cn3cnc4c(N)ncnc43)c(N3CCC[C@@H](N)C3)cn2)cc1Cl	6.00 to 8.00
Nc1ncnc2c1ncn2Cc1cc(-c2ccc(F)c(F)c2)ncc1N1CCCC(N)(C(=O)C2CCC2)C1 (stereo not shown)	6.00 to 8.00
Nc1ncnc2c1ncn2Cc1cc(-c2cc(F)c(OC(F)F)cc2F)ncc1N1CCC[C@](N)([C@@H](O)C(F)F)C1	6.00 to 8.00

---

target: NSD2 [1-1365] (Homo sapiens (Human), UniProt O96028); assay: LC-MS/MS-based NSD2 enzymatic assay (SAH production); format: biochemical; settings: read-out: NSD2 IC50

MOL	IC50
Nc1ncnc2c1ncn2Cc1cc(-c2ccc(F)c(F)c2)ncc1N1CCC[C@@H](N)[C@H]1C(=O)O	> 1000 nM
CCc1cccc([C@@]2(N)CCCN(c3cnc(-c4ccc(F)cc4)cc3Cn3cnc4c(N)ncnc43)C2)n1	1 to 10 nM
CC(=C(F)F)[C@@]1(N)CCCN(c2cnc(-c3ccc(F)c(F)c3)cc2Cn2cnc3c(N)ncnc32)C1	10 to 1000 nM
NC(=O)C[C@@H]1[C@H](N)CCCN1c1cnc(-c2ccc(F)c(F)c2)cc1Cn1cnc2c(N)ncnc21	> 1000 nM

---

biological target: NSD2 [1-1365] (Homo sapiens (Human), UniProt O96028); assay: LC-MS/MS-based NSD2 enzymatic assay (SAH production); type: biochemical; conditions: read-out: NSD2 IC50
pIC50: −log10 of the molar value.
REPORTED METRIC: pIC50

MOLECULE	TARGET SYSTEM	RESULT
COc1ccc(-c2cc(Cn3cnc4c(N)ncnc43)c(N3CCC[C@](N)(c4cccc(Cl)n4)C3)cn2)nc1Cl	NSD2 [1-1365] (Homo sapiens (Human), UniProt O96028)	6.00 to 8.00
Nc1ncnc2c1ncn2Cc1cc(-c2cc(F)c(F)cc2C(F)F)ncc1N1CCC[C@](N)([C@H](O)C(F)F)C1	NSD2 [1-1365] (Homo sapiens (Human), UniProt O96028)	6.00 to 8.00
Nc1ncnc2c1ncn2Cc1cc(-c2ccc(F)c(F)c2)ncc1N1CCC[C@](N)(c2cc(O)cc(Cl)n2)C1	NSD2 [1-1365] (Homo sapiens (Human), UniProt O96028)	8.00 to 9.00
Nc1ncnc2c1ncn2Cc1cc(-c2ccc(F)c(F)c2)ncc1N1CCC[C@](N)([C@@H](F)CO)C1	NSD2 [1-1365] (Homo sapiens (Human), UniProt O96028)	8.00 to 9.00
Nc1ncnc2c1ncn2Cc1cc(-c2ccc(F)c(F)c2)ncc1N1CCCC(N)(c2cccnn2)C1 (stereo not shown)	NSD2 [1-1365] (Homo sapiens (Human), UniProt O96028)	6.00 to 8.00
CSCC1(N)CCCN(c2cnc(-c3ccc(F)c(F)c3)cc2Cn2cnc3c(N)ncnc32)C1 (stereo not shown)	NSD2 [1-1365] (Homo sapiens (Human), UniProt O96028)	6.00 to 8.00
Nc1ncnc2c1ncn2Cc1cc(-c2ccc(F)cc2)ncc1N1CCC[C@](N)(c2cccc(C3CC3)n2)C1	NSD2 [1-1365] (Homo sapiens (Human), UniProt O96028)	8.00 to 9.00
